Cited source: ChEMBL document CHEMBL2390917

- Assay target: 5-hydroxytryptamine receptor 2B (Homo sapiens)
- Sequence (P41595 whole entry): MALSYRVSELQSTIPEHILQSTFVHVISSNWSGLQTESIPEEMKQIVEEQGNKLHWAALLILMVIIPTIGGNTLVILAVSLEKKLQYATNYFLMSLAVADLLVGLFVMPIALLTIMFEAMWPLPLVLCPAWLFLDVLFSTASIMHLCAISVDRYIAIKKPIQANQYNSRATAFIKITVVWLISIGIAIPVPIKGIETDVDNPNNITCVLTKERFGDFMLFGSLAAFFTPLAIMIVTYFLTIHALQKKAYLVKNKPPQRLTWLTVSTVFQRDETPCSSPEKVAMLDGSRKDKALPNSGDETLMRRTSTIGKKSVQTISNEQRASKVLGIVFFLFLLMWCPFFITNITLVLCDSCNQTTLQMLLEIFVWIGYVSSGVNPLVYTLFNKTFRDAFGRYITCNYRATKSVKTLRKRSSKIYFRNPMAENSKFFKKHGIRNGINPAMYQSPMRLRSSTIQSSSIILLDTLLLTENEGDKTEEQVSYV
Measurement type: IC50 (nM)
Express the result in nM but write the number alone.

Bench note: what IC50 did COc1cc(CC(C)N)c(OC)cc1I (stereo unspecified) show?
3.2

---

- Experiment: Binding affinity to P2X receptor (unknown origin) by radioligand displacement assay
- Set-up: species or system Homo sapiens
Measurement type: pIC50
// field semantics: pIC50 = negative decimal log of concentration (mol/L)

Please look up its pIC50: Nc1ncnc2c1ncn2[C@@H]1O[C@H](COP(=O)(O)CP(=O)(O)OP(=O)(O)O)[C@@H](O)[C@H]1O
8.46

---

- Experiment: Binding affinity to P2Y receptor (unknown origin) by radioligand displacement assay
- Set-up: species or system Homo sapiens
Measurement type: IC50 (nM)
A number alone suffices; assume nM.

Query: IC50; subject: Nc1ncnc2c1ncn2[C@H]1C[C@H](O)[C@@H](COP(O)(=S)OP(=O)(O)OP(=O)(O)O)O1 (stereo partly specified)
25
